target: T1, Human CD137 ECD (human); test: SPR, vs parent H183/L072
T1 construct: also called 4-1BB
T1 sequence (chain, as listed by the source limits assumed): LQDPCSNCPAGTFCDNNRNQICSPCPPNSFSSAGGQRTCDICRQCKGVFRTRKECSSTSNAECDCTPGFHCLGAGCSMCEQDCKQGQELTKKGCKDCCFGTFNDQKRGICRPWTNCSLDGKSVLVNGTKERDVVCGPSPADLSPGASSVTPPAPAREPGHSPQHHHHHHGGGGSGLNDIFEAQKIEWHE
fold change of affinity by entry:
Answer in fold, number only, no unit symbol.

Below, each entry is followed by its recorded fold change of affinity result.
binder	unit-symbol	fold change of affinity
dBBDu183H A102G / dBBDu072L (antibody, name in Kabat numbering, V domains shown, as m1, one VH change) VH: QVQLVESGGGLVQPGRSLRLSCAASGFTFSNAWMHWVRQAPGKGLEWVAQIKDKGNAYAAYYAPSVKGRFTISRDDSKNSIYLQMNSLKTEDTAVYYCHYVHYASASTVLPAFGVDGWGQGTTVTVSS VL: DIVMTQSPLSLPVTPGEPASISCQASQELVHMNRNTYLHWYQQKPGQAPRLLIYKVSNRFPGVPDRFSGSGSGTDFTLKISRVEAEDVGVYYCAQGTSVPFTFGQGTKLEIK	fold	1.6
dBBDu183H P61D / dBBDu072L (antibody, name in Kabat numbering, V domains shown, as m1, one VH change) VH: QVQLVESGGGLVQPGRSLRLSCAASGFTFSNAWMHWVRQAPGKGLEWVAQIKDKGNAYAAYYADSVKGRFTISRDDSKNSIYLQMNSLKTEDTAVYYCHYVHYASASTVLPAFGVDAWGQGTTVTVSS VL: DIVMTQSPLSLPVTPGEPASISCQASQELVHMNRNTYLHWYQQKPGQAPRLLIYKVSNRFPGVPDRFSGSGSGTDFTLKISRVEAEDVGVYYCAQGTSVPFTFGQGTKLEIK	fold	0.7
dBBDu183H S62K / dBBDu072L (antibody, name in Kabat numbering, V domains shown, as m1, one VH change) VH: QVQLVESGGGLVQPGRSLRLSCAASGFTFSNAWMHWVRQAPGKGLEWVAQIKDKGNAYAAYYAPKVKGRFTISRDDSKNSIYLQMNSLKTEDTAVYYCHYVHYASASTVLPAFGVDAWGQGTTVTVSS VL: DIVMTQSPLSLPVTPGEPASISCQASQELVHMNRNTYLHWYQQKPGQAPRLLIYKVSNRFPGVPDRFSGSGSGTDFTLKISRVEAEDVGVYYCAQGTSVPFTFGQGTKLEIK	fold	0.9
dBBDu183H H96T / dBBDu072L (antibody, name in Kabat numbering, V domains shown, as m1, one VH change) VH: QVQLVESGGGLVQPGRSLRLSCAASGFTFSNAWMHWVRQAPGKGLEWVAQIKDKGNAYAAYYAPSVKGRFTISRDDSKNSIYLQMNSLKTEDTAVYYCHYVTYASASTVLPAFGVDAWGQGTTVTVSS VL: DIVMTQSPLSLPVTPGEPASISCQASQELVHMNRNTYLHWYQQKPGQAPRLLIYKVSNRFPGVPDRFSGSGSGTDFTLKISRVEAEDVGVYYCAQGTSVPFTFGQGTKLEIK	fold	0.5

Now examine the next entry.
For reference, reported fold change of affinity for dBBDu183H F100gS / dBBDu072L (antibody, name in Kabat numbering, V domains shown, as m1, one VH change) VH: QVQLVESGGGLVQPGRSLRLSCAASGFTFSNAWMHWVRQAPGKGLEWVAQIKDKGNAYAAYYAPSVKGRFTISRDDSKNSIYLQMNSLKTEDTAVYYCHYVHYASASTVLPASGVDAWGQGTTVTVSS VL: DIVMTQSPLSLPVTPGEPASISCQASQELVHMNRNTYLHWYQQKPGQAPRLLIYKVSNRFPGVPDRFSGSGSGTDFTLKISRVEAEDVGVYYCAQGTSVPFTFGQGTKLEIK stands at 0.4
